Biological target: Urease subunit alpha/Urease subunit beta (Helicobacter pylori (strain ATCC 700392 / 26695) (Campylobacterpylori))
Assay: Inhibition of urease in Helicobacter pylori ATCC 43504 assessed as reduction in ammonia production preincubated for 1.5 hrs by indophenol method
Format: protein-complex assay, Helicobacter pylori NCTC 11637 = CCUG 17874 = ATCC 43504
METRIC NAME: IC50 (µM)
Supply the numeric figure in µM, leaving out any unit text.

- O=C(CCNc1ccc(Cl)cc1Cl)NO: 0.14
- O=C(CCNc1ccccc1Br)NO: 14.5
- O=C(CCNc1ccccc1Cl)NO: 5.91
- O=C(CCNc1cc(Cl)ccc1Cl)NO: 29.5
- O=C(CCNc1cc(Cl)cc(Cl)c1)NO: 3.9

Query block: Using the record for O=C(CNc1ccc(Cl)c(Cl)c1)NO , report its IC50.
Result block: 41.6

Query block: Try O=C(CNc1cc(Cl)cc(Cl)c1)NO next.
Result block: 16.9

Query block: Try O=C(CCNc1ccc(Cl)c(Cl)c1)NO next.
Result block: 38.9

Query block: Try O=C(CCNc1ccc(F)cc1)NO next.
Result block: 17.9

Query block: Try O=C(CNc1cccc(Br)c1)NO next.
Result block: 48.1

Query block: Try CC(=O)NO [ACETOHYDROXAMIC ACID] next.
Result block: 172

====

Target: Urease subunit alpha/Urease subunit beta (Helicobacter pylori (strain ATCC 700392 / 26695) (Campylobacterpylori), UniProt P69996)
Sequence (P69996 whole entry): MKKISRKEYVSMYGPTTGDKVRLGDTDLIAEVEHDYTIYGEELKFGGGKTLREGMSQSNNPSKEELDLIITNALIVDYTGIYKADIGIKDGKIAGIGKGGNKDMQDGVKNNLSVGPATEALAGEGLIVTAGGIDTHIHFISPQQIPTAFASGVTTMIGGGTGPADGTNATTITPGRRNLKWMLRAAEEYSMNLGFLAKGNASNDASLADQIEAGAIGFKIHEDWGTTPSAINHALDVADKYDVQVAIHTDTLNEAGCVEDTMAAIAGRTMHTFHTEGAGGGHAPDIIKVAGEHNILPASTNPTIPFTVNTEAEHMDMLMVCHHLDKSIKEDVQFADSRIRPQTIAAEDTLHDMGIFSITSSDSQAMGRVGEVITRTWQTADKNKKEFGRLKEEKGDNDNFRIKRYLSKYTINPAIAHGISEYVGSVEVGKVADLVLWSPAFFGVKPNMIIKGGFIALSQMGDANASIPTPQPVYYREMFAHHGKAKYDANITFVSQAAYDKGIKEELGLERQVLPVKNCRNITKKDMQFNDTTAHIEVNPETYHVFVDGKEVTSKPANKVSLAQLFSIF
Sequence (P14916 whole entry, further chain): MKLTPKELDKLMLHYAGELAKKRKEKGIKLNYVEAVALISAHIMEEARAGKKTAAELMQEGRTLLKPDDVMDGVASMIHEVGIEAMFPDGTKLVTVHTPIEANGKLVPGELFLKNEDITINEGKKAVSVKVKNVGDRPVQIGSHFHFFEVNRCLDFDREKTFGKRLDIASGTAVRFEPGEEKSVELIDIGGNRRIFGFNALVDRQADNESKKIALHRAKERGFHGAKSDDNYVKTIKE
Test: Mixed type non-competitive inhibition of urease in Helicobacter pylori ATCC 43504 assessed as reduction in ammonia production preincubated for 1.5 hrs by indophenol method
Format: protein-complex assay, Helicobacter pylori NCTC 11637 = CCUG 17874 = ATCC 43504
METRIC NAME: pKi
Hey, just a heads up that pKi is the negative log base 10 of the concentration in molar.

- O=C(CCNc1cc(Cl)cc(Cl)c1)NO: 5.81

Query block: Using the record for O=C(CNc1cc(Cl)cc(Cl)c1)NO , report its pKi.
Result block: 5.78

Query block: Try O=C(CCNc1ccc(Cl)cc1Cl)NO next.
Result block: 6.35

====

Recorded Ratio IC50 values for a group of compounds are listed next.
Target: Urease subunit alpha/Urease subunit beta (Helicobacter pylori (strain ATCC 700392 / 26695) (Campylobacterpylori)) (UniProt P69996+P14916)
Sequence (P14916 whole entry, looked up): as the sequence (P14916 whole entry, further chain) above
Sequence (P69996 whole entry, looked up): as the sequence (P69996 whole entry) above
Assay: Ratio of IC50 for Helicobacter pylori ATCC 43504 urease under cell free condition to IC50 for urease in intact Helicobacter pylori ATCC 43504
Format: protein-complex assay
Conditions: Helicobacter pylori NCTC 11637 = CCUG 17874 = ATCC 43504

Completed entries (count: 5):
- O=C(CNc1ccccc1Cl)NO: 46 to 110
- COc1cc(NCC(=O)NO)cc(OC)c1: 46 to 110
- O=C(CNc1ccc(Cl)cc1Cl)NO: 46 to 110
- O=C(CCNc1ccccc1)NO: 46 to 110
- O=C(CCNc1ccccc1Cl)NO: 46 to 110

Turning now to a further record.
Query block: Using the record for O=C(CNc1ccc(F)cc1)NO , report its Ratio IC50.
Result block: 46 to 110

====

Target: Urease subunit alpha/Urease subunit beta (Helicobacter pylori (strain ATCC 700392 / 26695) (Campylobacterpylori))
Experiment: Inhibition of Helicobacter pylori ATCC 43504 urease assessed as reduction in ammonia production preincubated for 1.5 hrs under cell free condition by indophenol method
Assay type: protein-complex assay, Helicobacter pylori NCTC 11637 = CCUG 17874 = ATCC 43504
pIC50: −log10 of the molar value.
Classify as follows. Reported pIC50 greater than or equal to 5: fulfilled. Reported pIC50 below: not fulfilled.

* O=C(CCNc1c(Cl)cccc1Cl)NO | not fulfilled

Query block: Confirm if pIC50 reported for the molecule COc1ccccc1NCC(=O)NO is 5 or above.
Result block: not fulfilled

Query block: Try O=C(CNc1ccc(Cl)c(Cl)c1)NO next.
Result block: fulfilled

Query block: Try O=C(CCNc1cc(Cl)cc(Cl)c1)NO next.
Result block: fulfilled

Query block: Try O=C(CCNc1cccc([N+](=O)[O-])c1)NO next.
Result block: fulfilled

Query block: Try O=C(CCNc1cccc(Cl)c1Cl)NO next.
Result block: fulfilled

Query block: Try COc1cccc(NCC(=O)NO)c1 next.
Result block: not fulfilled

Query block: Try O=C(CNc1cccc(Cl)c1)NO next.
Result block: fulfilled

Query block: Try O=C(CNc1c(Cl)cccc1Cl)NO next.
Result block: not fulfilled

Query block: Try O=C(CNc1ccccc1Cl)NO next.
Result block: not fulfilled

Query block: Try O=C(CCNc1ccc(Cl)c(Cl)c1)NO next.
Result block: fulfilled

Query block: Try Cc1cc(C)cc(NCCC(=O)NO)c1 next.
Result block: fulfilled

====

Recorded Ratio IC50 values for a group of compounds are listed next.
Target: Urease subunit alpha/Urease subunit beta (Helicobacter pylori (strain ATCC 700392 / 26695) (Campylobacterpylori)) (UniProt P69996+P14916)
Test: Potency index, ratio of AHA IC50 to compound IC50 for Helicobacter pylori ATCC 43504 urease assessed as reduction in ammonia production preincubated for 1.5 hrs under cell free condition by indophenol method
Type: protein-complex assay
Conditions: Helicobacter pylori NCTC 11637 = CCUG 17874 = ATCC 43504

Completed entries (count: 3):
• O=C(CNc1ccc(Br)cc1)NO = 2 to 24
• O=C(CNc1cccc(Br)c1)NO = 2 to 24
• O=C(CNc1ccccc1Br)NO = 2 to 24

Query block: Using the record for O=C(CCNc1ccc(Cl)cc1Cl)NO , report its Ratio IC50.
Result block: > 1500

====

Recorded IC50 values for a group of compounds are listed next.
Target: Urease subunit alpha/Urease subunit beta (Helicobacter pylori (strain ATCC 700392 / 26695) (Campylobacterpylori), UniProt P69996)
Assay: Inhibition of Helicobacter pylori ATCC 43504 urease assessed as reduction in ammonia production preincubated for 1.5 hrs under cell free condition by indophenol method
Type: protein-complex assay, Helicobacter pylori NCTC 11637 = CCUG 17874 = ATCC 43504
Supply the numeric figure in µM, leaving out any unit text.

Completed entries (count: 5):
- O=C(CCN1CCCc2ccccc21)NO: 21.1
- O=C(CNc1ccc(Br)cc1)NO: 2.01
- O=C(CCNc1ccccc1[N+](=O)[O-])NO: 10.5
- O=C(CNc1ccc(Cl)cc1)NO: 2.47
- O=C(CCNc1cc(F)cc(F)c1)NO: 1.52

Query block: Using the record for O=C(CCNc1ccc([N+](=O)[O-])cc1)NO , report its IC50.
Result block: 1.23

Query block: Try O=C(CNc1cc(F)cc(F)c1)NO next.
Result block: 5.11

Query block: Try COc1ccc(NCC(=O)NO)cc1 next.
Result block: 69.8

====

Recorded pIC50 values for a group of compounds are listed next.
Molecular target: Urease subunit alpha/Urease subunit beta (Helicobacter pylori (strain ATCC 700392 / 26695) (Campylobacterpylori), UniProt P69996)
Assay: Inhibition of Helicobacter pylori ATCC 43504 urease assessed as reduction in ammonia production preincubated for 1.5 hrs under cell free condition by indophenol method
Format: protein-complex assay, Helicobacter pylori NCTC 11637 = CCUG 17874 = ATCC 43504
Hey, just a heads up that pIC50 is the negative log base 10 of the concentration in molar.

Completed entries (count: 3):
* O=C(CCNc1ccccc1Cl)NO | 7.26
* O=C(CNc1ccccc1)NO | 5.33
* O=C(CNc1ccccc1Br)NO | 4.91

Query block: Using the record for O=C(CN1CCCc2ccccc21)NO , report its pIC50.
Result block: 4.15

Query block: Try COc1cc(NCC(=O)NO)cc(OC)c1 next.
Result block: 5.64

Query block: Try O=C(CNc1cc(Cl)cc(Cl)c1)NO next.
Result block: 6.89

Query block: Try O=C(CNc1cccc(Br)c1)NO next.
Result block: 6.07

Query block: Try O=C(CCNc1ccccc1)NO next.
Result block: 5.91

====

Target: Urease subunit alpha/Urease subunit beta (Helicobacter pylori (strain ATCC 700392 / 26695) (Campylobacterpylori)) (UniProt P69996+P14916)
Test: Ratio of IC50 for Helicobacter pylori ATCC 43504 urease under cell free condition to IC50 for urease in intact Helicobacter pylori ATCC 43504
Assay type: protein-complex assay
Conditions: Helicobacter pylori NCTC 11637 = CCUG 17874 = ATCC 43504
Recorded Ratio IC50 values for a group of molecules are listed next.

- O=C(CCNc1cc(Cl)ccc1Cl)NO: 46 to 110
- O=C(CCNc1ccccc1[N+](=O)[O-])NO: 46 to 110
- COc1cccc(NCC(=O)NO)c1: 46 to 110

Turning now to a further record.
Query block: Using the record for Cc1cc(C)cc(NCCC(=O)NO)c1 , report its Ratio IC50.
Result block: 46 to 110
